Test name: activity coefficient (dimensionless); of the first substance listed, at infinite dilution; xn = mol fraction of the nth substance listed
Reported conditions: 323 K; 101.33 kPa; Liquid; Chromatography; x1 = 0
Measured endpoint: activity coefficient

In [3]: df
Out[3]:
                                   compound  measured_value
0  ClC(Cl)Cl [trichloromethane] + CCCCCCCCCC[N+](C)(C)CCCCCCCCCC.[O-][Cl+3]([O-])([O-])[O-]           0.224
1  C=CCCCCC [1-heptene] + CCCCCCCCCC[N+](C)(C)CCCCCCCCCC.[O-][Cl+3]([O-])([O-])[O-]            1.85
2  CCC(C)=O [butanone] + CCCCCCCCCC[N+](C)(C)CCCCCCCCCC.[O-][Cl+3]([O-])([O-])[O-]           0.532
3  CO [methanol] + CCCCCCCCCC[N+](C)(C)CCCCCCCCCC.F[B-](F)(F)F           0.289
4  C/C=C/C(C)C [(E)-4-methyl-2-pentene] + CCCCCCCCCC[N+](C)(C)CCCCCCCCCC.F[B-](F)(F)F            1.68
5  C1CCCCCC1 [cycloheptane] + CCCCCCCCCC[N+](C)(C)CCCCCCCCCC.[O-][Cl+3]([O-])([O-])[O-]            2.04

###

Recorded measurements of activity coefficient, one per entry
Test name: activity coefficient (dimensionless); of the first substance listed, at infinite dilution; xn = mol fraction of the nth substance listed
Reported conditions: 323 K; 101.33 kPa; Liquid; Chromatography; x1 = 0
Measured endpoint: activity coefficient

>>> print(df.to_string())
                                   compound  measured_value
0  CCC(C)=O [butanone] + CCCCCCCCCC[N+](C)(C)CCCCCCCCCC.F[B-](F)(F)F            1.07
1  CCCC [butane] + CCCCCCCCCC[N+](C)(C)CCCCCCCCCC.F[B-](F)(F)F            1.12
2  c1ccccc1 [benzene] + CCCCCCCCCC[N+](C)(C)CCCCCCCCCC.F[B-](F)(F)F           0.499
3  CCO [ethanol] + CCCCCCCCCC[N+](C)(C)CCCCCCCCCC.[O-][Cl+3]([O-])([O-])[O-]           0.497
4  CC#N [acetonitrile] + CCCCCCCCCC[N+](C)(C)CCCCCCCCCC.[O-][Cl+3]([O-])([O-])[O-]           0.543
5  C1CCCC1 [cyclopentane] + CCCCCCCCCC[N+](C)(C)CCCCCCCCCC.F[B-](F)(F)F            1.17
6  C/C=C(\C)CC [(E)-3-methyl-2-pentene] + CCCCCCCCCC[N+](C)(C)CCCCCCCCCC.[O-][Cl+3]([O-])([O-])[O-]            1.48

###

Test name: activity coefficient (dimensionless); of the first substance listed, at infinite dilution; xn = mol fraction of the nth substance listed
Reported conditions: 353 K; 101.33 kPa; Liquid; Chromatography; x1 = 0
Recorded measurements of activity coefficient, one per entry
Measured endpoint: activity coefficient

>>> df
                                   compound     measured_endpoint  measured_value
0  CC#N [acetonitrile] + CCCCCCCCCC[N+](C)(C)CCCCCCCCCC.F[B-](F)(F)F  activity coefficient            1.24
1  CC(C)O [propan-2-ol] + CCCCCCCCCC[N+](C)(C)CCCCCCCCCC.[O-][Cl+3]([O-])([O-])[O-]  activity coefficient            1.11
2  CC#N [acetonitrile] + CCCCCCCCCC[N+](C)(C)CCCCCCCCCC.[O-][Cl+3]([O-])([O-])[O-]  activity coefficient            0.46
3  O=C1CCCCC1 [cyclohexanone] + CCCCCCCCCC[N+](C)(C)CCCCCCCCCC.F[B-](F)(F)F  activity coefficient            9.05
4  CCOCC [diethyl ether] + CCCCCCCCCC[N+](C)(C)CCCCCCCCCC.F[B-](F)(F)F  activity coefficient            0.79
5  C/C=C(\C)CC [(E)-3-methyl-2-pentene] + CCCCCCCCCC[N+](C)(C)CCCCCCCCCC.[O-][Cl+3]([O-])([O-])[O-]  activity coefficient            1.32
